The reported measurements were obtained from the supplement of paper PMC6555819.

- Test system: PPARg:RXRa DBDmut IVT, anti-RXR (DBD mutation: RXRa K156A/R161A, NR concentration 270 nM, RXRa partner concentration 90 nM)
- protocol text: PBM binding z-score (relative to random genomic background probes); higher = stronger binding; sequences stand for … in GC…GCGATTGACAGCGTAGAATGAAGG
Items are presented alongside their recorded PBM binding z-score.
When you answer, write just the number.

Below, 5 sequences whose answers are already recorded.
TCTTGTAGATCTAAGGTTAAGAAAGCCGAAGCCT : 1.71
CTACCAAGGTGAACAATGTCGTTGATTACTATTC : 2.67
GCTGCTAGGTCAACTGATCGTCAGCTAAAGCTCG : 4.99
CGTCAAGGTTCAACTAAGGTAACGTAAAGCACGC : -0.0468
GCTGACAGGTGAAACGCAGGTAACTCAGGGTGGC : 1.22

Measured PBM binding z-score of `GCAGACAGGTGAAACGCAGGTGACTCAGGGTGGC` : 0.661

For record `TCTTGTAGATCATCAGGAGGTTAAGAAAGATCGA` the listed PBM binding z-score is 1.49

Form: sequence = `GGAACGAGGGCAAATTTGATAGCATCTGTCGACG` ; PBM binding z-score = 3.93

Noted for `CAAACTAGGTCACCGCAAGGTCAAAGTCCGCATG` : its PBM binding z-score reads 8.65

Lab note: `CCTCGGAGGACAACAGGAGGCCAGAGCTGCCAGA` gave PBM binding z-score of -0.393

The reported value for `ACTACTAGTTGAGACGAGGGCAACCGATAGGTTG` in terms of PBM binding z-score is 0.0475

Lookup result for `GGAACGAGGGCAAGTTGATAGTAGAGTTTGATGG` ; measured PBM binding z-score: 3.65

Data point: `CGAACCAGGTCAAGGACAGTGAATCTCCGCACGC` ; PBM binding z-score = 4.75

Data point: `CAAACTAGGTCACGAAACGTCAAAGTCGAATGAC` ; PBM binding z-score = 8.38

# PBM binding z-score (sequence: `TCATATAGGTAAAAAGGTGAAAGTCCGTAAGTTA` ) is 4.17

PBM binding z-score in this record for `TCGACTAGGTTAGGGGCATTCAGAATGGCGTCGA` : 2.47

Looking up `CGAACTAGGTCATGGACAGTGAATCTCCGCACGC` , I found its PBM binding z-score recorded as 8.13

PBM binding z-score reported for this sequence `ATCGAAAGGTCGAGGTGTGTATAGAGAAAGGGAA` : 0.539

The sequence listed as `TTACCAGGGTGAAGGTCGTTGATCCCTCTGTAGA` has a reported PBM binding z-score of 1.33

Note to self: PBM binding z-score recorded for `GGAACGAGGGCAAAGTTGATATCATCTGTCGACG` was 3.87

// `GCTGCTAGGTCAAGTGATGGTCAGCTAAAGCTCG` : PBM binding z-score value = 4.64

Form: sequence = `TCTTGTAGATCAATAGAGATTAAGAAAGTGCGCT` ; PBM binding z-score = 1.45

Lookup result for `TCTAGTTGGACAAAGGTCACACACTCGAAATGCG` ; measured PBM binding z-score: 2.65

PBM binding z-score measured on `ACTCGGAGGACAAAGGTCAGAGTTACGCCAGTGA` = 0.7

Short answer for `ACTTACGGGTCAACGAGGTTATAGTACGCGTATA` : PBM binding z-score was 3.12

For this sequence ( `GCTGCTAGGTCAACTGCTGGTCAGCTAAAGCTCG` ), measured PBM binding z-score is 5.01
